Each recorded value in this set is attributed to patent US8703452B2.

targetSystem: S. thermophile aldonolactonase 1 (Thermothelomyces thermophilus)
Sequence (E5LEX3 entry or part of it): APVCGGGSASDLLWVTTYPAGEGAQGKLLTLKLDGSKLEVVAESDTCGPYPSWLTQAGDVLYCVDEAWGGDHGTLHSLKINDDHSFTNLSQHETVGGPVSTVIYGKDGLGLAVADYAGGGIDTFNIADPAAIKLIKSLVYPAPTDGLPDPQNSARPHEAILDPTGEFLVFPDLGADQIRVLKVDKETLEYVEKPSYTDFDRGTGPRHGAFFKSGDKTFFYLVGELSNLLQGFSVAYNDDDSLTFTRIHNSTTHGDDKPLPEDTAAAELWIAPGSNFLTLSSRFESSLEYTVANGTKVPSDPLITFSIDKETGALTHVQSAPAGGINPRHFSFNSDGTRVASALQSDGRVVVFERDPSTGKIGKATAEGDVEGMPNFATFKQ
conditionDescription: substrate specificity
reportedMetric: hydrolysis by S. thermophile aldonolactonase 1

- compoundStructureString: "O=C1O[C@H](CO)[C@@H](O[C@@H]2O[C@H](CO)[C@@H](O)[C@H](O)[C@H]2O)[C@H](O)[C@H]1O"
  targetSystem: "S. thermophile aldonolactonase 1 (Thermothelomyces thermophilus)"
  reportedValue: "completely hydrolyze"
- compoundStructureString: "O=C1O[C@H](CO)[C@@H](O)[C@@H]1O"
  targetSystem: "S. thermophile aldonolactonase 1 (Thermothelomyces thermophilus)"
  reportedValue: "not hydrolyzed"
- compoundStructureString: "O=C1O[C@H](CO)[C@H](O)[C@H]1O"
  targetSystem: "S. thermophile aldonolactonase 1 (Thermothelomyces thermophilus)"
  reportedValue: "not hydrolyzed"
- compoundStructureString: "O=C1O[C@H](CO)[C@@H](O)[C@H](O)[C@H]1O"
  targetSystem: "S. thermophile aldonolactonase 1 (Thermothelomyces thermophilus)"
  reportedValue: "completely hydrolyze"

We next turn to a different molecule, shown below.
Reported hydrolysis by S. thermophile aldonolactonase 1 of O=C1O[C@H](CO)[C@@H](O[C@@H]2O[C@H](CO)[C@H](O)[C@H](O)[C@H]2O)[C@H](O)[C@H]1O : completely hydrolyze
